Taken from a melting point compilation (Tetko et al.; mined from patent text by program, amines drawn as free bases though some values may be those of a salt).

# reported melting point; entries follow

# count of solved cases: 3
COc1cc2c(cc1F)C1(CO2)C(=O)N(CC2CCCO2)c2ccccc21 (stereo unspecified); 106 to 116 °C
Cn1cc(C2(c3c4n(c5ccccc35)CCCCC4)CC(=O)OC2=O)c2ccccc21 (stereo unspecified); 257 to 259 °C
CC(C)(O)COc1c(-c2ccc(S(C)(=O)=O)cc2)cnn(-c2ccc(Cl)c(Cl)c2)c1=O; 108 to 110 °C

Quick one: melting point for CC(c1ccc(Cl)cc1Cl)n1nc(C(=O)O)cc1-c1ccc(Cl)cc1 (stereo unspecified) ?
80 °C

Then CC1(C)C(=O)Oc2ccc3ccc(C=O)cc3c21 ?
135 to 137 °C

Then CC(C)c1ccc(S(=O)(=O)c2ccccc2)cc1S(=O)(=O)NC1CCN(C(=O)c2ccccc2)CC1 ?
225 °C
